# measurementTarget: KRAS G12D (Homo sapiens, UniProt P01116, G12D)
# Sequence (P01116 1-188 isoform P01116-2 G12D): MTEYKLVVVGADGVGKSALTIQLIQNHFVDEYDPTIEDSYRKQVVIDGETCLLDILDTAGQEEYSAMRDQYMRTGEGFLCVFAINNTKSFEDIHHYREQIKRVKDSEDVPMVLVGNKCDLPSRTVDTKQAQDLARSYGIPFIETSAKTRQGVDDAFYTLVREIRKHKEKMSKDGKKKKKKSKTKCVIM
# experimentDescription: biochemical
pIC50: −log10 of the molar value.
Below, each entry is listed with its recorded pIC50.
endpoint: pIC50

INSERT INTO results (compound, relationaloperator, measuredvalue) VALUES
  ('C#Cc1c(F)ccc2cc(O)cc(-c3ncc4c(N5C[C@@H](C)O[C@@H](C)C5)nc(OC[C@]56CCC[C@H]5N(C)CCC6)nc4c3F)c12', '>', 8.70),
  ('C#Cc1c(F)ccc2cc(O)cc(-c3ccc4c(N5CC6C(C5)C6(C)C)nc(OC[C@@]56CCCN5C[C@H](F)C6)nc4c3F)c12 (stereo partly drawn)', '=', 5.58),
  ('CN1CCC[C@@]2(COc3nc(N4CCC[C@@](C)(O)C4)c4cnc(-c5cc(O)ccc5C5CCC5)c(F)c4n3)CCC[C@@H]12', '>', 8.70),
  ('C#Cc1c(F)ccc2cc(O)cc(-c3nc(OC)c4c(N5CCC[C@](O)(CF)C5)nc(OC[C@]56CCC[C@H]5N(C)CCC6)nc4c3F)c12', '=', 8.22),
  ('C#Cc1c(F)ccc2cc(O)cc(-c3ccc4c(N5CCC(S(=O)(=O)N(C)C)CC5)nc(OC[C@@]56CCCN5C[C@H](F)C6)nc4c3F)c12', '=', 5.62),
  ('C#Cc1c(F)ccc2cc(O)cc(-c3ncc4c(N5CCCOCC5)nc(OC[C@@]56C[C@@H](F)CN5CC5(CC5)C6)nc4c3F)c12', '=', 8.00);

###

# measurementTarget: KRAS WT (Homo sapiens, UniProt P01116)
# Sequence (P01116 1-188 isoform P01116-2): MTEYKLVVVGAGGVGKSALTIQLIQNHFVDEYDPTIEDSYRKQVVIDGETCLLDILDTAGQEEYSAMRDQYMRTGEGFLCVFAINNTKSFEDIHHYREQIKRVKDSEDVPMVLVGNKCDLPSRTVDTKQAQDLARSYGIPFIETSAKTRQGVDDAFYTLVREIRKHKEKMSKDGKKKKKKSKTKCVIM
# experimentDescription: Cellular KRAS:RAF Disruption Assay (NanoBRET), KRAS WT
# reportedConditions: HEK293 T cells co-expressing RAF1 and wild type KRAS, 24 hours; read-out: RAS::RAF binding via NanoBRET IC50, KRAS WT
# strict inequality: IC50 < 10 nM yields TRUE, everything else yields FALSE

INSERT INTO assay_data (compound, measurementtarget, labelvalue) VALUES
  ('C#Cc1c(F)ccc2cc(O)cc(-c3ncc4c(N5C6COCC5C6)nc(OC[C@@]56CCCN5C[C@H](F)C6)nc4c3F)c12', 'KRAS WT (Homo sapiens, UniProt P01116)', 'FALSE'),
  ('C#Cc1c(F)ccc2cc(O)cc(-c3ncc4c(N5CC6COC(C6)C5)nc(OC[C@@]56CCCN5C[C@H](F)C6)nc4c3F)c12 (stereo partly shown)', 'KRAS WT (Homo sapiens, UniProt P01116)', 'FALSE'),
  ('C#Cc1c(F)ccc2cc(O)cc(-c3ncc4c(N5CCOC6CC65)nc(OC[C@]56CCC[C@H]5N(C)CCC6)nc4c3F)c12 (single isomer, unassigned)', 'KRAS WT (Homo sapiens, UniProt P01116)', 'TRUE'),
  ('C#Cc1c(F)ccc2cc(O)cc(-c3ccc4c(N5CCCOCC5)nc(OC[C@]56CCC[C@H]5N(C)CCC6)nc4c3F)c12', 'KRAS WT (Homo sapiens, UniProt P01116)', 'FALSE'),
  ('C#Cc1c(F)ccc2cc(O)cc(-c3ccc4c(N5CCCC(C)(O)C5)nc(OC[C@]56CCC[C@H]5N(C)CCC6)nc4c3F)c12 (stereo partly shown)', 'KRAS WT (Homo sapiens, UniProt P01116)', 'TRUE'),
  ('C#Cc1c(F)ccc2cc(O)cc(-c3ncc4c(N5CCOCC(C)(O)C5)nc(OC[C@]56CCC[C@H]5N(C)CCC6)nc4c3F)c12 (stereo partly shown)', 'KRAS WT (Homo sapiens, UniProt P01116)', 'FALSE'),
  ('C#Cc1c(F)ccc2cc(O)cc(-c3ccc4c(N5C[C@@H]6C[C@H]5C(=O)N6)nc(OC[C@]56CCC[C@H]5N(C)CCC6)nc4c3F)c12', 'KRAS WT (Homo sapiens, UniProt P01116)', 'FALSE'),
  ('C#Cc1c(F)ccc2cc(O)cc(-c3ncc4c(N5CCOC6CC65)nc(OC[C@@]56CCCN5C[C@H](F)C6)nc4c3F)c12 (stereo partly shown)', 'KRAS WT (Homo sapiens, UniProt P01116)', 'FALSE'),
  ('C#Cc1c(F)ccc2cc(O)cc(-c3ccc4c(N5CCCOCC5)nc(OC[C@@]56CCCN5C[C@H](F)C6)nc4c3F)c12', 'KRAS WT (Homo sapiens, UniProt P01116)', 'TRUE'),
  ('C#Cc1c(F)ccc2cc(O)cc(-c3ncc4c(N5CCCOCC5)nc(OC[C@]56CCC[C@H]5N(C)CCC6)nc4c3F)c12', 'KRAS WT (Homo sapiens, UniProt P01116)', 'TRUE'),
  ('C#Cc1c(F)ccc2cc(O)cc(-c3ncc4c(N5CCOCC5)nc(OC[C@@]56CCCN5C[C@H](F)C6)nc4c3F)c12', 'KRAS WT (Homo sapiens, UniProt P01116)', 'TRUE'),
  ('C#Cc1c(F)ccc2cc(O)cc(-c3ccc4c(N5CC6CCC(C5)N6C(=O)C(F)(F)F)nc(OC[C@]56CCC[C@H]5N(C)CCC6)nc4c3F)c12', 'KRAS WT (Homo sapiens, UniProt P01116)', 'FALSE'),
  ('C#Cc1c(F)ccc2cc(O)cc(-c3ncc4c(N5CCOCC(F)(F)C5)nc(OC[C@]56CCC[C@H]5N(C)CCC6)nc4c3F)c12', 'KRAS WT (Homo sapiens, UniProt P01116)', 'TRUE'),
  ('C#Cc1c(F)ccc2cc(O)cc(-c3ncc4c(N5CCCC(C)(O)C5)nc(OC[C@]56CCC[C@H]5N(C)CCC6)nc4c3F)c12 (single isomer, unassigned)', 'KRAS WT (Homo sapiens, UniProt P01116)', 'TRUE'),
  ('C#Cc1c(F)ccc2cc(O)cc(-c3ncc4c(N5CC6CCC(C5)N6C(=O)C5CC5)nc(OC[C@@]56CCCN5C[C@H](F)C6)nc4c3F)c12', 'KRAS WT (Homo sapiens, UniProt P01116)', 'FALSE'),
  ('C#Cc1c(F)ccc2cc(O)cc(-c3ccc4c(N5CC6CCC(C5)N6C(=O)C(F)(F)F)nc(OC[C@@]56CCCN5C[C@H](F)C6)nc4c3F)c12', 'KRAS WT (Homo sapiens, UniProt P01116)', 'FALSE');
